Test system: Hepatitis C replicon
Experiment: HCV replicon assay (NPT ELISA readout) in Huh-7 replicon-containing cells
Type: cell-based, Hepatitis C virus
Details: HCV replicon in Huh-7 cells, three days incubation
Catalogue of EC50 values

1. COc1ccc2c(O[C@@H]3C[C@H]4C(=O)N[C@]5(C(=O)NS(=O)(=O)C6CC6)C[C@H]5CCCCCCC[C@H](CC(=O)N5CCCCC5)C(=O)N4C3)cc(-c3ccccc3)nc2c1 = < 1000 nM

Now, please, on to the next compound.
# input Can you share its EC50? I mean this compound: COc1ccc2c(O[C@@H]3C[C@H]4C(=O)N[C@H](C(=O)NS(=O)(=O)C5CC5)CCCCCCCCC[C@H](CC(=O)N5CCCCC5)C(=O)N4C3)cc(-c3ccccc3)nc2c1
# output 1000 to 10000 nM
